biological target: OPJ-MγS (Mus musculus, UniProt O35486, F10S); construct: made in house; host or cells: E. coli BL21(DE3) pLysS, pET17b vector; test: bis-ANS binding study, OPJ-MγS; settings: 10 μM protein, 100 μM drug; read-out: Percent inhibition of binding of bis-ANS, OPJ-MγS
Where inhibition at 100 µM equals or exceeds 8%, the correct label is 1.0; where it does not, the label is 0.0.

See these solved cases before continuing.
COC(=O)/C=C/C(C)=C\C=C\C(C)=C\C=C\C=C(C)\C=C\C=C(C)\C=C\C(=O)O = 1.0
Oc1c(Cl)cc(Cl)c(Cl)c1Cc1c(O)c(Cl)cc(Cl)c1Cl = 0.0
O=C(O)CCCCCCCCCCCC[C@@H]1C=CCC1 = 0.0
CC(C)=CCCC1(C)C=Cc2c(O)c3c(c(CC=C(C)C)c2O1)OC12C(=CC4CC1C(C)(C)OC2(C/C=C(/C)C(=O)O)C4O)C3=O (stereo not drawn) [drug D, dihydrogambogic acid] = 0.0
CC(C)=CCC[C@]1(C)C=Cc2c(O)c3c(c(CC=C(C)C)c2O1)O[C@]12C(=C[C@@H]4C[C@H]1C(C)(C)O[C@@]2(C/C=C(/C)C(=O)O)C4=O)C3=O = 1.0

Query compound follows.
Ask: Please check the record Cc1cc(C(C#N)c2ccc(Cl)cc2)c(Cl)cc1NC(=O)c1cc(I)cc(I)c1O (stereo not drawn) and state if its inhibition at 100 µM is at or above 8%.
Reply: 1.0

---

target: HγS_N14D (Homo sapiens, UniProt P22914, N15D); test: Thermal aggregation (72 °C, 20 min) turbidity assay, HγS_N14D; assay type: biochemical; details: read-out: % Suppression
Sequence (P22914 whole entry N15D): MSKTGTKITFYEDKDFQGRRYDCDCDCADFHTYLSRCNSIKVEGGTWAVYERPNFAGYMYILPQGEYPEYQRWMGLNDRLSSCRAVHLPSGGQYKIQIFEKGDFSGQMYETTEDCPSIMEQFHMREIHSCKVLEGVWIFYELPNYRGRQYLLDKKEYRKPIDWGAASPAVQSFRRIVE
reported endpoint: inhibition at 125 µM

Below are worked cases with known answers.
Cc1cc(C(C#N)c2ccc(Cl)cc2)c(Cl)cc1NC(=O)c1cc(I)cc(I)c1O (stereo not shown) [drug C, Closantel] = 77%
CC(C)=CCCC1(C)C=Cc2c(O)c3c(c(CC=C(C)C)c2O1)OC12C(=CC4CC1C(C)(C)OC2(C/C=C(/C)C(=O)O)C4O)C3=O (stereo not shown) [drug D, dihydrogambogic acid] = 76%
CC(C)=CCC[C@]1(C)C=Cc2c(O)c3c(c(CC=C(C)C)c2O1)O[C@]12C(=C[C@@H]4C[C@H]1C(C)(C)O[C@@]2(C/C=C(/C)C(=O)O)C4=O)C3=O [drug G, Gambogic acid] = 73%

Ask: Fill in inhibition at 125 µM for record Oc1c(Cl)cc(Cl)c(Cl)c1Cc1c(O)c(Cl)cc(Cl)c1Cl [drug X, Hexachlorophene]
Reply: 60%

---

Biological target: WT-MγS (Mus musculus, UniProt O35486)
Construct: made in house; host or cells: E. coli BL21(DE3) pLysS, pET17b vector
Sequence (O35486 1-178): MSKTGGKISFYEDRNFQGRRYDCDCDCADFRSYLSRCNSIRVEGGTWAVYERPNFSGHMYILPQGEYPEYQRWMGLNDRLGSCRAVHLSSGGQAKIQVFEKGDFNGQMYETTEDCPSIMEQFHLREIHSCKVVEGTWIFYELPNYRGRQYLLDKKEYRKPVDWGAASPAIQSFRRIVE
Assay: End-point heat-mediated turbidity assay, WT-MγS
Format: biochemical
Details: read-out: Percent Inhibition of heat mediated aggregation, WT-MGS
inhibition at 500 µM values by entry
Give your result in % as a bare value.

Record excerpt, results attached:
Cc1cc(C(C#N)c2ccc(Cl)cc2)c(Cl)cc1NC(=O)c1cc(I)cc(I)c1O (stereo not shown) = 80.5
CC(C)=CCC[C@]1(C)C=Cc2c(O)c3c(c(CC=C(C)C)c2O1)O[C@]12C(=C[C@@H]4C[C@H]1C(C)(C)O[C@@]2(C/C=C(/C)C(=O)O)C4=O)C3=O = 80.5
Oc1c(Cl)cc(Cl)c(Cl)c1Cc1c(O)c(Cl)cc(Cl)c1Cl = 39.7

Switching to the query record.
Ask: # lookup: WT-MγS (Mus musculus, UniProt O35486) inhibition at 500 µM, key = CC(C)=CCCC1(C)C=Cc2c(O)c3c(c(CC=C(C)C)c2O1)OC12C(=CC4CC1C(C)(C)OC2(C/C=C(/C)C(=O)O)C4O)C3=O (stereo not shown) [drug D, dihydrogambogic acid]
Reply: 80.4
